Ref: paper PMC5913336

Molecular target: T1, Bicoid DBD-GST (Bcd) (UniProt P09081 83-170)
T1 sequence: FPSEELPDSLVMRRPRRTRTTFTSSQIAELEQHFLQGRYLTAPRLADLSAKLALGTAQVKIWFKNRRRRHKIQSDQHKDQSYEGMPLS
Assay: competitive fluorescence anisotropy (HiP-FA); mean of replicates 6.092, 5.6175; HiP-FA: 33 mM phosphate pH 7.0, 90 mM NaCl, 0.01% Tween 20, 0.1 mM DTT, 0.5% agarose; conventional titration and EMSA: 20 mM Tris-acetate pH 7.0, 50 nM (sic) NaCl, 0.01% Tween-20, 0.1 mM DTT
Conditions: protein: recombinant; tags: N-terminal GST; blunt
endpoint label: pKd
Recall that pKd is obtained by taking minus log10 of the concentration measured in molar.

Exercise: Given the entry Bcd competitor 6 (G2A) (dsDNA) DNA 1: TCGACAGTAATCCCTA DNA 2: TAGGGATTACTGTCGA , report its measured pKd.
Key: 8.23
